tested on: Klebsiella pneumoniae; details: Concentration 20 uM; ASSAY_TEST Inhibition of Bacterial Growth; detection method Absorption (OD600); MEDIA CAMHB; plate type 384well; NBS; CORNING #3640; time 18 hr
Description: Antibacterial activity against Klebsiella pneumoniae MDR ATCC 70063 (CO-ADD:GN_003); MIC in CAMBH media using NBS plates, by OD(600)
Results with a measured potency or affinity are listed apart.
What Inhibition was measured for each of the following?
Respond numerically; units are % and should not be typed.

The compound identified as `CCN(CC)c1ccc(/C=C/c2cc(-c3ccccc3)c3ccccc3n2)cc1` registered its Inhibition at 11.78

The compound identified as `CCOC(=O)Nc1c2ccccc2nc2ccccc12` registered its Inhibition at 16.5

The compound identified as `Cc1cc(NC(=O)c2ccccc2)c(Cl)cc1N` registered its Inhibition at 14.81

The compound identified as `Cc1ccc2c(c1)c1ccc3c(c1n2C)C(=O)C=CC3=O` registered its Inhibition at 6.78

The compound identified as `O=C(Nc1ccccc1)Oc1cccnc1O` registered its Inhibition at 18.58

The compound identified as `NCCN1CCNCC1` registered its Inhibition at 11.04

The compound identified as `NC(=O)Cc1ccc2c(c1)[nH]c1ccccc12` registered its Inhibition at 6.47

The compound identified as `c1ccc(-c2nnc3oc(-c4cccs4)nn23)cc1` registered its Inhibition at 16.29

The compound identified as `O=C(/C=C/C(=O)N1CCc2ccccc2C1)N1CCc2ccccc2C1` registered its Inhibition at 3.56

The compound identified as `CO/N=C1/C=C(C)C(=O)C(C)=C1C` registered its Inhibition at 1.18

The compound identified as `O=C(/C=C\c1ccc2ccccc2n1)c1cc(Cl)ccc1O` registered its Inhibition at 3.11

The compound identified as CC(C)(C)C1=NN=C2c3ccccc3C(=O)C21 (configuration not stated) registered its Inhibition at 1.25

The compound identified as `NC(S)=Nc1cccc(Cl)c1` registered its Inhibition at 0.23

The compound identified as `CC(C)(C)c1ccc(NS(=O)(=O)c2ccc(N)cc2)cc1` registered its Inhibition at 16.84

The compound identified as COc1ccc(C2OC3=Nc4cc(C)c(C)cc4NC3=C2O)cc1 (configuration not stated) registered its Inhibition at 7.32

The compound identified as `CCCN(CCC)c1ccc(/C=C/c2ccc3cc(OCC)ccc3n2)cc1` registered its Inhibition at 28.88

The compound identified as `CC(=O)Nc1ccc(OC(=O)Oc2ccc(NC(C)=O)cc2)cc1` registered its Inhibition at 22.87

The compound identified as `CCCCn1cnc2c(S)nc(N)nc21` registered its Inhibition at 7.23

The compound identified as NC(CSC1(c2cccc3ccccc23)c2ccccc2-c2ccccc21)C(=O)O (configuration not stated) registered its Inhibition at 13.19

The compound identified as CC(=O)Oc1ccc(OC(C)=O)c2c1CC1(C)OC1(C)C2 (configuration not stated) registered its Inhibition at 9.63

The compound identified as `CCOc1ccc(NC(=O)N(O)C2(C#N)CCCCC2)cc1` registered its Inhibition at 18.05

The compound identified as `C=CCOC(=O)/C=C\C(=O)NC(N)=O` registered its Inhibition at 29.86

The compound identified as CCOC(=O)C1(C#N)C(=O)CS/C1=N/c1ccccc1Cl (configuration not stated) registered its Inhibition at 8.87

The compound identified as `NNC(=O)c1nnsc1-c1csnn1` registered its Inhibition at 1.34

The compound identified as `CN(C)c1ccc2c(c1)Sc1cc(N(C)C)ccc1N2C(=O)c1ccccc1` registered its Inhibition at 25.07

The compound identified as CC(C)NCC1CCc2cc(CO)c([N+](=O)[O-])cc2N1 (configuration not stated) registered its Inhibition at 3.1

The compound identified as Cc1c(Cl)cccc1Nc1ncccc1C(=O)OCC(O)CO (configuration not stated) registered its Inhibition at 9.09

The compound identified as `c1ccc2[nH]c(CCCCCc3nc4ccccc4[nH]3)nc2c1` registered its Inhibition at 9.39

The compound identified as `c1ccc(/N=N/N2CCOCC2)cc1` registered its Inhibition at 4.01

The compound identified as `COc1ccc2c(C)cc(C)nc2n1` registered its Inhibition at -0.51

The compound identified as `Nc1ncnc(N2CCOCC2)n1` registered its Inhibition at 0.72

The compound identified as `Cc1cc2cc3n(c2nn1)N=C(Cl)CC3` registered its Inhibition at 18.79

The compound identified as `CC(C)(C)n1nc(C2CC2)cc1NC(=O)Nc1ccccc1` registered its Inhibition at 7.92

The compound identified as `CN1CCN(C2=NCCO2)CC1` registered its Inhibition at 13.16

The compound identified as `CSC(=NS(=O)(=O)c1ccccc1)NNC(=O)c1c(-c2c(Cl)cccc2Cl)noc1C` registered its Inhibition at 10.18

The compound identified as O=S1(=O)CCC(N(/N=C/c2ccco2)c2ccccc2)C1 (configuration not stated) registered its Inhibition at 6.93

The compound identified as `COc1ccc(NC(=O)c2cc3ccc4c5ccccc5[nH]c4c3cc2O)cc1` registered its Inhibition at 7.19

The compound identified as `Clc1nc(Cl)nc(-c2cn(-c3ccccc3)c3ccccc23)n1` registered its Inhibition at 3.41

The compound identified as `CCc1ccc(CCN2C(=O)c3ccccc3C2=O)nc1` registered its Inhibition at 17.62

The compound identified as NC(=O)C1=CC2C3C=CC2(O)C(=O)OC3O1 (configuration not stated) registered its Inhibition at 15.67

The compound identified as `COc1ccc(Nc2cc(Cl)ccc2C(=O)O)cn1` registered its Inhibition at 20.74

The compound identified as `O=C(Nc1ccc(C2=NCCCN2)cc1)Nc1ccc(C2=NCCCN2)cc1` registered its Inhibition at 24.63

The compound identified as `Cc1n[nH]c2nc(N)nn2c1=O` registered its Inhibition at -2.02

The compound identified as `CCCCN1C(=O)CC(C(=O)OCC)=C1C` registered its Inhibition at -4.24

The compound identified as `O=C(Oc1ccccc1)c1cccc2cccc(C(=O)Oc3ccccc3)c12` registered its Inhibition at 14.06

The compound identified as `COc1cc2c(cc1OC)C(=O)Cc1ccc3c(c1CN(C)CC2)OCO3` registered its Inhibition at 9.37

The compound identified as `CCNc1nc(NC(C)C)nc(-c2ccncc2)n1` registered its Inhibition at 10

The compound identified as `OC1(Cc2ccccc2)CCNCC1` registered its Inhibition at 12.17

The compound identified as `CCCCCc1cccnc1` registered its Inhibition at 10.71

The compound identified as Cc1ccc(C#CC(C)(O)C(C)(C)C)cn1 (configuration not stated) registered its Inhibition at 18.58

The compound identified as Cc1c(Cl)cccc1NC(=O)CC1Sc2ccccc2NC1=O (configuration not stated) registered its Inhibition at 3.05

The compound identified as `O=C1c2ccccc2C(=Cc2cccnc2)c2ccccc21` registered its Inhibition at 10.23
